Would you kindly list pIC50 for each of these molecules?
Target: Recombinant human EP300 containing the bromodomain (EP300-BD (1040-1161)) (Homo sapiens)
Construct: Recombinant human EP300 bromodomain (EP300-BD (1040-1161)); made in house; host or cells: E. coli BL21-CodonPlus (DE3), modified pET vector
Sequence (Q09472 1040-1161): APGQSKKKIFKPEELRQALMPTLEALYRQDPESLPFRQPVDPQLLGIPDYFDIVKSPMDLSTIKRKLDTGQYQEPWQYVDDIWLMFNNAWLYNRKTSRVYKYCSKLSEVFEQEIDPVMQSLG
Assay: EP300 Alphascreen binding assay
pIC50: −log10 of the molar value.

Would you please look over these solved cases?
CCOc1cc(C(=O)O)cc(OCC)c1-n1cc(-c2ccc(OC)cc2F)c2ncc(-c3c(C)noc3C)cc21	6.00 to 10.00
Cc1noc(C)c1-c1cnc2c(c1)c(-c1ccc(C(=O)O)cc1OC(F)(F)F)cn2-c1cnc(N(C)C)nc1	6.00 to 10.00
Cc1noc(C)c1-c1cnc2c(c1)c(-c1ccc(C(=O)O)cc1OC(F)(F)F)cn2-c1ccccc1C1CC1	6.00 to 10.00
Cc1noc(C)c1-c1cnc2c(-c3ccccc3)cn(-c3cc(C(=O)O)ccc3OC(F)(F)F)c2c1	6.00 to 10.00
CCOc1cc(C(=O)O)cc(Cl)c1-c1cn(C2CCOCC2)c2ncc(-c3c(C)noc3C)cc12	6.00 to 10.00
Cc1noc(C)c1-c1cnc2c(c1)c(-c1cncc(C(=O)O)n1)cn2[C@@H](C)c1ccccn1	5.10 to 6.00
Cc1noc(C)c1-c1cnc2c(-c3ccc(F)cc3F)cn(-c3c(OC(C)C)cc(C(=O)O)cc3OC(C)C)c2c1	6.00 to 10.00
CCOc1cc(C(=O)O)c(F)cc1-c1cn([C@H]2CCOC2)c2ncc(-c3c(C)noc3C)cc12	6.00 to 10.00

Would you mind listing pIC50 for each of the following molecules?
1. Cc1noc(C)c1-c1cnc2c(c1)c(-c1ccc(C(=O)O)cc1OC(F)(F)F)cn2C1CCOCC1
2. Cc1noc(C)c1-c1cnc2c(-c3cccc(C(=O)O)c3C)c(C(F)(F)F)n([C@@H](C)c3ccccn3)c2c1
3. CNS(=O)(=O)c1cccc(-c2cn(Cc3ccccc3)c3ncc(-c4c(C)noc4C)cc23)c1

Return:
["6.00 to 10.00", "5.10 to 6.00", "5.10 to 6.00"]

====

Target: Recombinant human BRD4 containing dual bromodomains (BRD4-BD12 (1-477)) (Homo sapiens)
Construct: Recombinant human BRD4 containing dual bromodomains (BRD4-BD12 (1-477))
Test: BRD4 Alphascreen binding assay
pIC50: −log10 of the molar value.
Readout Name: pIC50

Would you please look over these solved cases?
Cc1noc(C)c1-c1cnc2c(c1)c(-c1c(Cl)cc(C(=O)O)cc1OC1CC1)cn2-c1ncccc1C#N	5.10 to 6.00
Cc1ccc(S(=O)(=O)n2cc(-c3ccc(C(=O)O)cc3)c3cc(-c4c(C)noc4C)cnc32)cc1	3.00 to 5.10
Cc1noc(C)c1-c1cnc2c(c1)c(-c1ccc(C(=O)O)c(C(F)(F)F)c1)cn2C(c1ccccn1)C1CCCC1 (stereo not shown)	5.10 to 6.00
Cc1noc(C)c1-c1cnc2c(c1)c(-c1ccc(S(C)(=O)=O)cc1OC(C)C)cn2-c1ccccc1	3.00 to 5.10
Cc1noc(C)c1-c1cnc2c(c1)c(-c1c(F)cc(C(=O)O)cc1OC(C)C)cn2C(C1CC1)C1CC1	5.10 to 6.00

Would you mind listing pIC50 for each of the following molecules?
1. Cc1noc(C)c1-c1cnc2c(c1)c(-c1ccc(C(=O)O)cc1OCC(F)F)cn2[C@H]1CCOC1
2. Cc1noc(C)c1-c1cnc2c(c1)c(-c1ccc(C(=O)O)cc1OC(F)(F)F)cn2-c1cnccc1F
3. Cc1noc(C)c1-c1cnc2c(c1)c(-c1ccc(C(=O)O)cc1OC(F)(F)F)cn2-c1cnccc1C#N
4. Cc1noc(C)c1-c1cnc2c(c1)c(-c1cccc(S(N)(=O)=O)c1)cn2Cc1ccccc1
5. CCOc1cc(C(=O)O)c(F)cc1-c1cn(-c2ccc(F)cc2F)c2ncc(-c3c(C)noc3C)cc12
6. Cc1noc(C)c1-c1cnc2c(c1)c(-c1cccc(C(=O)O)c1)cn2CC1(C)COC1
7. COc1cccc(Cn2cc(-c3ccnc(C(=O)O)c3)c3cc(-c4c(C)noc4C)cnc32)c1

Return:
1. 3.00 to 5.10
2. 3.00 to 5.10
3. 3.00 to 5.10
4. 5.10 to 6.00
5. 5.10 to 6.00
6. 3.00 to 5.10
7. 5.10 to 6.00

Data provenance is patent US11446287B2.
